These data points were gathered from ChEMBL document CHEMBL5308504.

Measured ΔTm by item
Target: UniProt:P55201
Sequence (whole entry): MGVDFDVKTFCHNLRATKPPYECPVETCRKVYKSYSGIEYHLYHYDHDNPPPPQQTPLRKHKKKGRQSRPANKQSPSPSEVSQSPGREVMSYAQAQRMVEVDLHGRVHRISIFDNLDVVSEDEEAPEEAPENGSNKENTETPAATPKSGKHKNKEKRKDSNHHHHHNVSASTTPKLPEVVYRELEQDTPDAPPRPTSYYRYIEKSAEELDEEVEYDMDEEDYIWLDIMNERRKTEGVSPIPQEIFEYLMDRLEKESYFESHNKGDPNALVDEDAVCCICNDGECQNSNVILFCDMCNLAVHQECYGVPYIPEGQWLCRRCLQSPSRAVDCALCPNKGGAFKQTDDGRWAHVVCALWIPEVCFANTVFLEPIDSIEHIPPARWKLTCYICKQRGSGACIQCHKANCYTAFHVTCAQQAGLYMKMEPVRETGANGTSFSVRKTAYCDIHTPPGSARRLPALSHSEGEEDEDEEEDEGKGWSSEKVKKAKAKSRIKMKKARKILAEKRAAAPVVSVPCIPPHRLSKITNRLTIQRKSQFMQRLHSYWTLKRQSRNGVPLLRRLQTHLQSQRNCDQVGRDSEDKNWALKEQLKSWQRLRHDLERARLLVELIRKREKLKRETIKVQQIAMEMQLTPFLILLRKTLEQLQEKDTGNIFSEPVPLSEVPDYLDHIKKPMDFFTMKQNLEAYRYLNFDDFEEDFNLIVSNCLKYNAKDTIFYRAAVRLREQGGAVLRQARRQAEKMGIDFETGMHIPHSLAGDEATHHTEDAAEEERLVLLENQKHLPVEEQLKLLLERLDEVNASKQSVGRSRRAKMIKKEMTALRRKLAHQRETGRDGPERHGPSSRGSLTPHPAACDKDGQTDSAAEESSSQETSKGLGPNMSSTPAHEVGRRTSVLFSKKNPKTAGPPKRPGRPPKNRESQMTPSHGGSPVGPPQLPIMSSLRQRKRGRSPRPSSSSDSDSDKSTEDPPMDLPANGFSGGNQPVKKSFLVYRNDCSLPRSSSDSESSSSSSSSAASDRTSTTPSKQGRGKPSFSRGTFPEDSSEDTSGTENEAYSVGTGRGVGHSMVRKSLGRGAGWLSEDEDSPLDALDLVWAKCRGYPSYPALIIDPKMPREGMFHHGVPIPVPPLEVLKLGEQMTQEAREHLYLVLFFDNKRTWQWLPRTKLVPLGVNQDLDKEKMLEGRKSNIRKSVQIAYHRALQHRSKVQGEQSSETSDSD
Conditions: Compound concentration 20.0 uM, Protein concentration 2.0 uM, Result type QC Liability

| molecule | target.system | ΔTm |
| --- | --- | --- |
| N#Cc1ccc(C#CC[C@@H](C#N)NC(=O)[C@H]2CCCCN2)cc1F | UniProt:P55201 | -2.24 °C |
| CC(C)C(=O)N1CCC(c2cn(C)c3ncc(NC(=O)c4cccc(C#N)c4)c(C(F)(F)F)c23)CC1 | UniProt:P55201 | 0.27 °C |
| O=C(CNCc1cc2ccccc2[nH]1)N[C@H]1CC[C@@H](c2nc3ccccc3[nH]2)CC1 | UniProt:P55201 | 0.07 °C |
| CN1CCN(c2ccnc(NCCc3ccccc3)n2)CC1 | UniProt:P55201 | -1.12 °C |
| Cc1ccc2c(NS(=O)(=O)c3ccccc3Cl)cccc2c1Oc1ncccc1-c1ccnc(N[C@H]2CCCNC2)n1 | UniProt:P55201 | -3.81 °C |
| CCc1c(-c2ccc3[nH]ncc3c2)cnc(N)c1-c1ccc(O)cc1 | UniProt:P55201 | -1.61 °C |
| COc1cc(-c2nn([C@H]3CC[C@H](N4CCN(C(C)=O)CC4)CC3)c3ncnc(N)c23)ccc1NC(=O)c1cc2ccccc2n1C | UniProt:P55201 | -2.71 °C |
| CCOC(=O)N1CCC(CN(Cc2ccc(Cl)cc2)Cc2ccc([N+](=O)[O-])s2)C1 (configuration not stated) | UniProt:P55201 | -2.07 °C |
| COc1cc2ncnc(Nc3ccc(F)c(Cl)c3)c2cc1OCCN(C)C[C@H](C)O | UniProt:P55201 | -1.85 °C |
| COc1cc(-c2cn(C)c(=O)c3cnccc23)c(OC)cc1CN(C)C | UniProt:P55201 | 0.44 °C |
| Cc1nnc2n1-c1sc3c(c1C(c1ccccc1Cl)=NC2)C[C@@H](C(=O)N1CCOCC1)C3 | UniProt:P55201 | -1.96 °C |
| CCC(C)(C)CC[C@H](NC(=O)N1CCOCC1)C(=O)NC1(C#N)CCN(C)CC1 | UniProt:P55201 | -3.19 °C |
| Cc1cc(-c2ccnc(Nc3cnn(C)c3)n2)ccc1CNC(=O)N1CC(OC(C)C)C1 | UniProt:P55201 | -1.39 °C |
| Cc1csc(S(=O)(=O)N(CC(C)C)c2cc3c(cc2OCc2ccc(C(=O)O)cc2)CCC3)n1 | UniProt:P55201 | -3.17 °C |
| O=C1CCCN1CCNc1nc(Nc2ccc(Cl)c(Cl)c2)ncc1C(F)(F)F | UniProt:P55201 | -1.78 °C |
| O=C(O)CCCN1CCC[C@H]1COc1ccc(Oc2ccc(Cl)cc2)cc1 | UniProt:P55201 | -3.24 °C |
| O=C(O)/C=C/c1ccc(Cn2ccnc2)cc1 | UniProt:P55201 | -2.72 °C |
| C[C@H](NC(=O)c1cc(Cl)ccc1Oc1ccc(F)cc1)c1ccc(C(=O)O)cc1 | UniProt:P55201 | -3.01 °C |
| O=C(O)CCCCCC[C@@H]1C(=O)NC(=O)N1CCC(O)C1CCCCC1 (some centres not stated) | UniProt:P55201 | -2.88 °C |
| O=C(O)[C@]1(Cc2cccc(Nc3nccs3)n2)CC[C@@H](Oc2cccc(Cl)c2F)CC1 | UniProt:P55201 | -3.28 °C |
| COc1cc(Oc2nc(-c3ccc(NC(=O)C4CCOC4)cc3)nn3c(C)nc(C)c23)cc(OC)c1OC (configuration not stated) | UniProt:P55201 | -1.59 °C |
| Cn1cc(Nc2nccc(N3CC4CCC(C3)N4C(=O)[C@@H]3CC3(F)F)n2)cn1 | UniProt:P55201 | -0.71 °C |
| CN(C)C(=O)Cn1cc(-c2nc(C3(c4ccc(-c5cnc(N)nc5)cc4)CC3)no2)cn1 | UniProt:P55201 | -2.76 °C |
| CCO[C@@H](Cc1ccc(OCCc2ccc(OS(C)(=O)=O)cc2)cc1)C(=O)O | UniProt:P55201 | -1.83 °C |
| CC(=O)Nc1ncc(CN2CCC[C@H](Cc3cc(C)nc(C)c3)C2)s1 | UniProt:P55201 | 0.17 °C |
| CC(C(=O)Nc1cc(C#N)ccc1CCCC(=O)O)c1ccc(F)c2ccccc12 (configuration not stated) | UniProt:P55201 | -2.92 °C |
| CC(C)Oc1ccc(Cc2ccc(NC3=NCCN3)cc2)cc1 | UniProt:P55201 | -3.24 °C |
| C[C@@H]1Cc2c([nH]c3ccccc23)[C@@H](c2c(F)cc(/C=C/C(=O)O)cc2F)N1CC(C)(C)F | UniProt:P55201 | -4.53 °C |
| COc1cc(C)c(S(=O)(=O)N(C)CCOCC(=O)N(C)[C@H]2CCC[C@@H](N3CCN(C)CC3)C2)c(C)c1 | UniProt:P55201 | -2.36 °C |
| CC[C@H](CO)Nc1nc(Nc2cccc(-c3ccccn3)c2)c2ncn(C(C)C)c2n1 | UniProt:P55201 | -2.18 °C |
| CCN(C(=O)c1cc(F)ccc1Oc1cncnc1N1CC2(CCN(C[C@H]3CC[C@H](NS(=O)(=O)CC)CC3)CC2)C1)C(C)C | UniProt:P55201 | -0.92 °C |
| CCO[C@H](COc1ccc(C(F)(F)F)cc1)CSc1ccc(OCC(=O)O)c(C)c1 | UniProt:P55201 | -0.87 °C |
| Cc1nccn1-c1ccc(Sc2cccc(C3(C(N)=O)CCOCC3)c2)cc1 | UniProt:P55201 | -1.72 °C |
| Cn1cc(-c2ccc(N(C(=O)NCc3ccccc3)[C@H]3CC[C@H](Nc4ccc(C#N)cn4)CC3)cc2)ccc1=O | UniProt:P55201 | -0.32 °C |
| COc1cc2nc(C)nc(NC3(c4ccccc4)CC3)c2cc1OC | UniProt:P55201 | -3.11 °C |
| COc1ccc2c(O[C@@H]3C[C@H]4C(=O)N[C@]5(C(=O)NS(=O)(=O)C6(C)CC6)CC5/C=C\CCCCC[C@H](NC(=O)c5ccn(C)n5)C(=O)N4C3)cc(OC(C)C)nc2c1C (some centres not stated) | UniProt:P55201 | -0.57 °C |
| CC1CCN(C(=O)[C@H](CCn2cccc2C#N)NS(=O)(=O)c2cccc3[nH]ccc23)CC1 | UniProt:P55201 | -2.12 °C |
